Each record here notes measured EC50.
assay: Concentration required to inhibit human recombinant Poly (ADP-ribose) polymerase 1 was determined using cell protection assay
Express it in nM; write the number only.

Sample answers from the record:
Nc1cccc(-c2ccc(C(=O)CNC(=O)CCn3c4c(c(=O)[nH]c3=O)CSCC4)cc2)c1 : 70
O=C(CCn1c2c(c(=O)[nH]c1=O)CSCC2)NCC(=O)N1CCN(c2cc(C(F)(F)F)ccn2)CC1 : 100

# lookup: EC50 of "O=C(CCn1c2c(c(=O)[nH]c1=O)CSCC2)NCC(=O)c1ccc2ccccc2c1"
80

Entry to check: "O=C(CCn1c2c(c(=O)[nH]c1=O)CSCC2)NCC(=O)N1CCN(c2ccccn2)CC1"
100

Subsequent entry: "Nc1cccnc1N1CCN(C(=O)CNC(=O)CCn2c3c(c(=O)[nH]c2=O)CSCC3)CC1"
700

Cool, now "O=C(CCn1c2c(c(=O)[nH]c1=O)CSCC2)NCC(=O)c1ccc(Cl)cc1"
500
